# credit: ChEMBL document CHEMBL5303300

tested on: HEK-293T; experiment: Multiplex assay against HEK293T; type: toxicity, cell-based; details: human, 12 h, 10 µM, compound concentration 10 uM, number of replicates 2
This listing pairs compounds with measured Population Normal (%).
The response must be a number in % with no trailing unit.

The examples below pair each entry with its known result.
{"Compound": "COc1cc(C(=O)NC2CCN(C)CC2)ccc1Nc1ncc(C(F)(F)F)c(NCc2ccc(C)cc2N(C)S(C)(=O)=O)n1.O=CO.O=CO", "Population Normal (%)": 76}
{"Compound": "CC1=C(C)C(=O)C(C(C)(C)CC(=O)N(CCCCSC[C@H]2O[C@@H](n3cnc4c(N)ncnc43)[C@H](O)[C@@H]2O)Cc2cccc(-c3ccc(Cl)cc3)c2)=C(C)C1=O", "Population Normal (%)": 92}
{"Compound": "CCc1cnn2c(NCc3ccc[n+]([O-])c3)cc(N3CCCCC3CCO)nc12 (stereo not given)", "Population Normal (%)": 86}
{"Compound": "COc1nc2ccc([C@@](O)(c3ccc(Cl)cc3)c3cncn3C)cc2c(Cl)c1Cc1ccc(-n2cccn2)cc1", "Population Normal (%)": 93}
{"Compound": "COc1ncc(-c2cc(-c3ncc(CN4C[C@@H](C)O[C@@H](C)C4)o3)c3cn[nH]c3c2)cc1NS(C)(=O)=O", "Population Normal (%)": 90}
{"Compound": "Cc1ccc2c(c1CCC(=O)O)CC[C@@H](NS(=O)(=O)c1ccc(Cl)cc1)C2", "Population Normal (%)": 91}
{"Compound": "CCn1ccc(Nc2ncc3c(n2)-c2c(nn(C)c2-c2ccc(-c4cnn(C)c4)cc2Cl)CC3)n1", "Population Normal (%)": 88}
{"Compound": "CN(C)CC#Cc1ccc2[nH]c3c(c2c1)-c1nc(N)ncc1CCC3", "Population Normal (%)": 87}

Population Normal (%) reported for this compound CCNc1ccc(-c2nn(-c3ccccc3C)c3c2C(C)Cc2nc(NC(=O)OC)sc2-3)cn1.O=C(O)C(F)(F)F (stereo not given) : 89

Population Normal (%) reported for this compound CN[C@@H]1CC[C@@H](c2ccc(Cl)c(Cl)c2)c2ccccc21.Cl : 93
